Reported protein stability index by item:
B1: IQUB (parent)
chain: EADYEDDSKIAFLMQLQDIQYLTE

# Variants of: B1
# ASSAY COMMENT: protein stability index of a GFP-peptide fusion (GPS, HEK-293T) (PSI 1-6); higher = more stable;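 further: lentivirally expressed fusions sorted by FACS into six bins by GFP to DsRed ratio, PSI derived from sequencing read proportions per bin multiplied by bin number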
# STATED CONDITIONS: c terminus: a fixed tail appended

SEQUENCE CHAIN: RADYEDDSKIAFLMQLQDIQYLTE [E1R]
protein stability index: 2.44
//
SEQUENCE CHAIN: EADYEDDSKIAFTMQLQDIQYLTE [L13T]
protein stability index: 4.3
//
SEQUENCE CHAIN: EADYEDDSKIAFLMQLIDIQYLTE [Q17I]
protein stability index: 1.76
//
SEQUENCE CHAIN: EQDYEDDSKIAFLMQLQDIQYLTE [A2Q]
protein stability index: 2.36
//
SEQUENCE CHAIN: EADYCDDSKIAFLMQLQDIQYLTE [E5C]
protein stability index: 2.76
//
SEQUENCE CHAIN: EADYQDDSKIAFLMQLQDIQYLTE [E5Q]
protein stability index: 2.62
//
SEQUENCE CHAIN: EADYEDDSKIAFLDQLQDIQYLTE [M14D]
protein stability index: 4.27
//
SEQUENCE CHAIN: EADPEDDSKIAFLMQLQDIQYLTE [Y4P]
protein stability index: 4.15
//
SEQUENCE CHAIN: EADYEDDSKIAFLMQLQDLQYLTE [I19L]
protein stability index: 2.86
//
SEQUENCE CHAIN: EADYEDDSKINFLMQLQDIQYLTE [A11N]
protein stability index: 3.77
//
SEQUENCE CHAIN: EADYEDDSKIAFLMQLQDIQYLLE [T23L]
protein stability index: 2.12
//
SEQUENCE CHAIN: EARYEDDSKIAFLMQLQDIQYLTE [D3R]
protein stability index: 2.34
//
SEQUENCE CHAIN: EADGEDDSKIAFLMQLQDIQYLTE [Y4G]
protein stability index: 3.61
//
SEQUENCE CHAIN: EADYEDDSKIAILMQLQDIQYLTE [F12I]
protein stability index: 3.19
//
SEQUENCE CHAIN: EADYEDDSKIAFLMQLQDEQYLTE [I19E]
protein stability index: 4.96
//
SEQUENCE CHAIN: EADYEDDSKIAFLMQLQDIQYRTE [L22R]
protein stability index: 3.94
//
SEQUENCE CHAIN: EADYEDDSKIKFLMQLQDIQYLTE [A11K]
protein stability index: 3.4
//
SEQUENCE CHAIN: EADYGDDSKIAFLMQLQDIQYLTE [E5G]
protein stability index: 2.49
//
SEQUENCE CHAIN: EACYEDDSKIAFLMQLQDIQYLTE [D3C]
protein stability index: 1.69
//
SEQUENCE CHAIN: EADIEDDSKIAFLMQLQDIQYLTE [Y4I]
protein stability index: 3.21
//
SEQUENCE CHAIN: EADYEDDSKIAFLMQLQWIQYLTE [D18W]
protein stability index: 2.2
//
SEQUENCE CHAIN: EADYEDDSKIAFLMFLQDIQYLTE [Q15F]
protein stability index: 1.77
//
SEQUENCE CHAIN: EADYEDDSKIAKLMQLQDIQYLTE [F12K]
protein stability index: 4.51
//
SEQUENCE CHAIN: EADYEDDSKIAFLMQPQDIQYLTE [L16P]
protein stability index: 4.37
//
SEQUENCE CHAIN: LADYEDDSKIAFLMQLQDIQYLTE [E1L]
protein stability index: 2.75
//
SEQUENCE CHAIN: EADYEGDSKIAFLMQLQDIQYLTE [D6G]
protein stability index: 2.38
//
SEQUENCE CHAIN: EADYEDDSKIAFLMQLQDIQYLTI [E24I]
protein stability index: 1.67
//
SEQUENCE CHAIN: EADYEDDSKDAFLMQLQDIQYLTE [I10D]
protein stability index: 4.35
//
SEQUENCE CHAIN: EADYEDDSKIAFLMQLMDIQYLTE [Q17M]
protein stability index: 2.17
//
SEQUENCE CHAIN: EADYEDRSKIAFLMQLQDIQYLTE [D7R]
protein stability index: 2.87
//
SEQUENCE CHAIN: EADYEDDSKIAFLMQLEDIQYLTE [Q17E]
protein stability index: 3.43
//
SEQUENCE CHAIN: EADYEDESKIAFLMQLQDIQYLTE [D7E]
protein stability index: 3.14
//
SEQUENCE CHAIN: EADYEDDSKYAFLMQLQDIQYLTE [I10Y]
protein stability index: 2.76
//
SEQUENCE CHAIN: EAPYEDDSKIAFLMQLQDIQYLTE [D3P]
protein stability index: 1.98
//
SEQUENCE CHAIN: EADYEDDSKIAFLMTLQDIQYLTE [Q15T]
protein stability index: 2.19
//
SEQUENCE CHAIN: EADYFDDSKIAFLMQLQDIQYLTE [E5F]
protein stability index: 2.38
//
SEQUENCE CHAIN: EADYEDDSKIAFLMQLQDRQYLTE [I19R]
protein stability index: 3.78
//
SEQUENCE CHAIN: EADFEDDSKIAFLMQLQDIQYLTE [Y4F]
protein stability index: 3.16
//
SEQUENCE CHAIN: EADYEDDSKIAFLMQLQDIQYLCE [T23C]
protein stability index: 1.87
//
SEQUENCE CHAIN: EADYEDHSKIAFLMQLQDIQYLTE [D7H]
protein stability index: 2.98
//
SEQUENCE CHAIN: EADYEDDSCIAFLMQLQDIQYLTE [K9C]
protein stability index: 1.86
//
SEQUENCE CHAIN: EADYSDDSKIAFLMQLQDIQYLTE [E5S]
protein stability index: 2.24
//
SEQUENCE CHAIN: EADYEDDSKIAFLMQLHDIQYLTE [Q17H]
protein stability index: 3.13
//
SEQUENCE CHAIN: EADYEDDSKILFLMQLQDIQYLTE [A11L]
protein stability index: 2.12
//
SEQUENCE CHAIN: EADYEDDSKIAFLMQLQDIQYLKE [T23K]
protein stability index: 3.2
//
SEQUENCE CHAIN: EADYECDSKIAFLMQLQDIQYLTE [D6C]
protein stability index: 2.68
//
SEQUENCE CHAIN: EADYEDDSLIAFLMQLQDIQYLTE [K9L]
protein stability index: 2.58
//
SEQUENCE CHAIN: EADYEDDSKIAFLMQLQDIQWLTE [Y21W]
protein stability index: 2.95
//
SEQUENCE CHAIN: EADYEDDSKIAFLTQLQDIQYLTE [M14T]
protein stability index: 4.04
//
SEQUENCE CHAIN: EADYEDDSNIAFLMQLQDIQYLTE [K9N]
protein stability index: 3.08
//
SEQUENCE CHAIN: GADYEDDSKIAFLMQLQDIQYLTE [E1G]
protein stability index: 2.79
//
SEQUENCE CHAIN: EADYYDDSKIAFLMQLQDIQYLTE [E5Y]
protein stability index: 2.27
//
SEQUENCE CHAIN: EADYEDDSKIAFLMQLQDIQHLTE [Y21H]
protein stability index: 3.55
//
SEQUENCE CHAIN: EADYEDDSKIAFLMQQQDIQYLTE [L16Q]
protein stability index: 4.19
//
SEQUENCE CHAIN: EADYEDDSKIAFLMQLQDIQYITE [L22I]
protein stability index: 3.62
//
SEQUENCE CHAIN: EADYEDDSKIYFLMQLQDIQYLTE [A11Y]
protein stability index: 2.02
//
SEQUENCE CHAIN: EADYEDWSKIAFLMQLQDIQYLTE [D7W]
protein stability index: 2.33
//
SEQUENCE CHAIN: EADYEDDSKIAFLMQLQDAQYLTE [I19A]
protein stability index: 4.17
//
SEQUENCE CHAIN: EADYEDDSKIAFLMQLQDIQKLTE [Y21K]
protein stability index: 3.51
//
SEQUENCE CHAIN: EADYEDDSKIAFLMQLQDIQYLEE [T23E]
protein stability index: 4.16
//
SEQUENCE CHAIN: EADYEDGSKIAFLMQLQDIQYLTE [D7G]
protein stability index: 2.78
//
SEQUENCE CHAIN: EADYEDDSKIAFLMQLQDIQYLTC [E24C]
protein stability index: 2.33
//
SEQUENCE CHAIN: EADYEDDSKIAFLMELQDIQYLTE [Q15E]
protein stability index: 3.36
//
SEQUENCE CHAIN: EADYEDDSKIAFLMQLQDIQDLTE [Y21D]
protein stability index: 4.45
//
SEQUENCE CHAIN: EADYEDDSKIAFLMQRQDIQYLTE [L16R]
protein stability index: 3.99
//
SEQUENCE CHAIN: EADYEDDSKIAFLMQLQEIQYLTE [D18E]
protein stability index: 2.86
//
SEQUENCE CHAIN: EADYEDDSKITFLMQLQDIQYLTE [A11T]
protein stability index: 3.14
//
SEQUENCE CHAIN: EADNEDDSKIAFLMQLQDIQYLTE [Y4N]
protein stability index: 4.01
//
SEQUENCE CHAIN: EADYEDDSKISFLMQLQDIQYLTE [A11S]
protein stability index: 2.94
//
SEQUENCE CHAIN: EEDYEDDSKIAFLMQLQDIQYLTE [A2E]
protein stability index: 3.63
//
SEQUENCE CHAIN: EADYEDDSKIAFLMDLQDIQYLTE [Q15D]
protein stability index: 3.1
//
SEQUENCE CHAIN: EADYEDDSKIAFLMQLQDIQYLVE [T23V]
protein stability index: 1.92
//
SEQUENCE CHAIN: EADYEDDSKIAFEMQLQDIQYLTE [L13E]
protein stability index: 4.54
//
SEQUENCE CHAIN: EADYEDDSKIAFLMQLGDIQYLTE [Q17G]
protein stability index: 3.46
//
SEQUENCE CHAIN: EADYEDDSKMAFLMQLQDIQYLTE [I10M]
protein stability index: 3.2
